Where do these numbers come from? They come from the supplement of paper PMC8960247.

Reported relative viability values are given for each entry in this list.
- System: 621-103 (TSC2-rescued)
- experiment: relative viability vs DMSO; higher = less cytotoxic
- cond: 1 µM; serum: 10% FBS; 72 h
Counter-ions that a name gives are not always drawn.
# unit: % | format: bare number

Req: Give relative viability (621-103 (TSC2-rescued)) of the following compound: "O=C1NC(=O)/C(=C/c2ccc3c(c2)OC(F)(F)O3)S1"
Resp: 98.1

Req: For the record O=c1cc(-c2ccc(O)c(O)c2)oc2cc(O)cc(O)c12 [Luteolin (Luteolol)] , what value of relative viability is listed for 621-103 (TSC2-rescued)?
Resp: 108

Req: Please provide the recorded relative viability for COC(=O)Nc1nc2cc(Sc3ccccc3)ccc2[nH]1 [Fenbendazole (Panacur)] , tested on 621-103 (TSC2-rescued).
Resp: 44.3

Req: Missing value: relative viability, 621-103 (TSC2-rescued), entry Nc1cc(C(Cl)=C(Cl)Cl)c(S(N)(=O)=O)cc1S(N)(=O)=O [Clorsulon] . Fill in?
Resp: 91.8

Req: Given the entry CNCCC(Oc1ccc(C(F)(F)F)cc1)c1ccccc1 (configuration not stated) [Fluoxetine HCl] , what relative viability was observed with 621-103 (TSC2-rescued)?
Resp: 104

###

- System: 621-103 (TSC2-rescued)
- experiment: relative viability vs DMSO; higher = less cytotoxic
- cond: 0.1 µM; serum: 10% FBS; 72 h
Structures can show the parent of a compound that is named as a salt.
Overview of recorded relative viability for various compounds
Kindly provide the numeric value in % only, without the unit symbol.

// known answers, use as guide
CNCCCC12CCC(c3ccccc31)c1ccccc12 [Maprotiline HCl]; 95.4
O=C(NOCC1CC1)c1ccc(F)c(F)c1Nc1ccc(I)cc1Cl; 99.9
COc1cccc(Nc2c(C(N)=O)cnc3c(C)cc(S(=O)(=O)c4cccc(C(=O)N(C)C)c4)cc23)c1; 103

Req: Which relative viability is listed for "NC1=N[C@@]2(c3cc(NC(=O)c4ccc(F)cn4)ccc3F)COC[C@H]2CS1" ?
Resp: 101

Req: Find the recorded relative viability belonging to "CCCCCCOC(=O)NC(=N)c1ccc(NCc2nc3cc(C(=O)N(CCC(=O)OCC)c4ccccn4)ccc3n2C)cc1" and report it.
Resp: 92.9

Req: Look at this compound and give its reported relative viability. "O=C(NC[C@H]1CN(c2ccc(N3CCOCC3=O)cc2)C(=O)O1)c1ccc(Cl)s1"
Resp: 117

Req: Entry under review: "FC(F)c1nc2ccccc2n1-c1nc(N2CCOCC2)nc(N2CCOCC2)n1" . Reported relative viability?
Resp: 105

Req: Which relative viability reading was recorded for the compound "COc1cc2c(Oc3ccc(NC(=O)C4(C(=O)Nc5ccc(F)cc5)CC4)cc3F)ccnc2cc1OCCCN1CCOCC1" ?
Resp: 91.7

###

- Test system: 621-103 (TSC2-rescued);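 also: immortalized renal angiomyolipoma cells stably carrying empty vector or TSC2, dosed in 384-well plates in DMEM, viability normalized to vehicle-treated wells within each plate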
- experiment: relative viability vs DMSO; higher = less cytotoxic
- cond: 0.0001 µM; serum: 10% FBS; 72 h
The entries below come with measured relative viability values attached.
Hi! Could you send only the number? It should be in %, unit omitted.

C#Cc1cccc(Nc2ncnc3cc(OCCOC)c(OCCOC)cc23)c1 [Erlotinib]; 99.8
CN(C)Cc1ccc(-c2nc3cccc4c3n2CCNC4=O)cc1; 104
Nc1nc(=O)n([C@@H]2CS[C@H](CO)O2)cc1F [Emtricitabine]; 106

Req: // query relative viability value for entry CC(C)n1c(/C=C/C(O)CC(O)CC(=O)O)c(-c2ccc(F)cc2)c2ccccc21 (configuration not stated) [Fluvastatin Sodium]
Resp: 102

Req: Query (compound): CCC(C)(Oc1ccc(C2(c3ccc(OC(C)(CC)C(=O)O)cc3)CCCCC2)cc1)C(=O)O (configuration not stated) [Clinofibrate] ; field requested: relative viability
Resp: 102
